TEST_SYSTEM: dipeptidylaminopeptidase purifiée à partir du cerveau de rat (Rattus norvegicus, UniProt O55096)
Construct: purifiée à partir du cerveau de rat; from tissue; host or cells: rat brain
Sequence (O55096 2-738 limits assumed): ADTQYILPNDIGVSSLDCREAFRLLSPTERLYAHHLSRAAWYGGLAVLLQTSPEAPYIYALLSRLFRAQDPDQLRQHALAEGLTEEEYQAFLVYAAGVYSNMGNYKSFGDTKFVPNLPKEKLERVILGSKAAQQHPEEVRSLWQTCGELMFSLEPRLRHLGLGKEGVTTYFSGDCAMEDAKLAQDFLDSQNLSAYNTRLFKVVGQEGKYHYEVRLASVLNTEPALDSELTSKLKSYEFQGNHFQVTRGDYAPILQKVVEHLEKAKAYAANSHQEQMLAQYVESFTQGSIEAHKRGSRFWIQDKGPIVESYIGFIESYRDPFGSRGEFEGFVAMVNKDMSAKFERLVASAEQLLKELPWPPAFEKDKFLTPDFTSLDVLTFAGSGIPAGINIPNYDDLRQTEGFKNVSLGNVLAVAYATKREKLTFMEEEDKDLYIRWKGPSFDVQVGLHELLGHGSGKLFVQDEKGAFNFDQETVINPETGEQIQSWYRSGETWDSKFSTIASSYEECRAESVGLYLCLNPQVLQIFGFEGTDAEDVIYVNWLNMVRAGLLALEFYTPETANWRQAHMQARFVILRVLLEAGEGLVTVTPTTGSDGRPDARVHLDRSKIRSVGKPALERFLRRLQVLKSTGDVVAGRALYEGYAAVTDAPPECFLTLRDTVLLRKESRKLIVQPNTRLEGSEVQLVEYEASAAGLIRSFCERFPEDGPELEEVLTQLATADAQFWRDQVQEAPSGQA
ASSAY_METHOD_TEXT: Inhibitory power on dipeptidylaminopeptidase, substrate [3H]Leu5-enkephalin
Format: biochemical
EXPERIMENTAL_CONDITIONS: enzyme purified from rat brain, [3H]Leu5-enkephalin substrate; read-out: Dipeptidyla-minopeptida-se(M), concentrations inhibitrices 50 % (converted)
ENDPOINT_LABEL: IC50 (M)

- COMPOUND: "O=C(O)CCNC(=O)C(CC(=O)NO)Cc1ccccc1 (racemic)"
  ENDPOINT_LABEL: "IC50"
  NUMERIC_RESULT: "3e-08"
- COMPOUND: "O=C(O)C[C@H](Cc1ccccc1)NC(=O)[C@@H](CC(=O)NO)Cc1ccccc1"
  ENDPOINT_LABEL: "IC50"
  NUMERIC_RESULT: "5e-10"
- COMPOUND: "CC(CNC(=O)C(CC(=O)NO)Cc1ccccc1)C(=O)O (stereo not shown)"
  ENDPOINT_LABEL: "IC50"
  NUMERIC_RESULT: "2e-08"
- COMPOUND: "CC(CC(=O)O)NC(=O)C(CC(=O)NO)Cc1ccccc1 (stereo not shown)"
  ENDPOINT_LABEL: "IC50"
  NUMERIC_RESULT: "5e-10"
- COMPOUND: "O=C(O)CCC(=O)N[C@@H](CC(=O)NO)Cc1ccccc1"
  ENDPOINT_LABEL: "IC50"
  NUMERIC_RESULT: "8e-07"
- COMPOUND: "CC(CC(=O)O)C(=O)N[C@@H](CC(=O)NO)Cc1ccccc1 (stereo partly shown)"
  ENDPOINT_LABEL: "IC50"
  NUMERIC_RESULT: "1.8e-07"
- COMPOUND: "CC(CC(=O)NC(CC(=O)NOCc1ccccc1)Cc1ccccc1)C(=O)O (stereo not shown)"
  ENDPOINT_LABEL: "IC50"
  NUMERIC_RESULT: "8e-07"
